AC50, Adenosine receptor A3 (Homo sapiens, UniProt P0DMS8), per-entry values.

compound: C[C@]12CC[C@@H]3c4ccc(O)cc4CC[C@H]3[C@@H]1CC[C@@H]2OC(=O)CCC1CCCC1 [ESTRADIOL CYPIONATE]
AC50: 9.98 µM

compound: CC(=O)OC(C)OC(=O)C(C)c1ccc(-c2ccccc2)c(F)c1 (configuration not stated)
AC50: > 30 µM

compound: CCOC(=O)c1ccc(OC(=O)CCCCCNC(=N)N)cc1 [GABEXATE]
AC50: > 30 µM

Input: // fetch Adenosine receptor A3 (Homo sapiens, UniProt P0DMS8) AC50 for CCCCCCCCCCC[C@@H](C[C@@H]1OC(=O)[C@H]1CCCCCC)OC(=O)[C@H](CC(C)C)NC=O [ORLISTAT]
Output: > 30 µM

Input: Under Adenosine receptor A3 (Homo sapiens, UniProt P0DMS8): AC50 value of CCCCCCCCCCCCCCCC(=O)OC/C=C(C)/C=C/C=C(C)/C=C/C1=C(C)CCCC1(C)C [VITAMIN A PALMITATE] ?
Output: 11.6 µM

Input: Quick check: AC50 on Adenosine receptor A3 (Homo sapiens, UniProt P0DMS8), item CC(C)[N+](C)(CCOC(=O)C1c2ccccc2Oc2ccccc21)C(C)C [PROPANTHELINE] ?
Output: > 30 µM

Input: Notebook entry, Adenosine receptor A3 (Homo sapiens, UniProt P0DMS8) assay: AC50 of O=C(O)CCCc1ccc(N(CCCl)CCCl)cc1 [CHLORAMBUCIL] = ?
Output: > 30 µM
